tested on: OCI-AML2; test: cell viability relative to vehicle control; higher = less cytotoxic; details: 10 µM; SRSF2 genotype: wt/wt;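 further: after 48 h exposure read by CellTiter-Glo luminescence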
Structures can show the parent of a compound that is named as a salt.
Each record here notes measured cell viability.

{"compound": "CC(C)(Oc1ccc(C2CC2(Cl)Cl)cc1)C(=O)O (stereo unspecified) [Ciprofibrate]", "quantityUnit": "%", "cell viability": 110}
{"compound": "COC(=O)C1=C(C)NC(C)=C(C(=O)OC)C1c1ccccc1[N+](=O)[O-]", "quantityUnit": "%", "cell viability": 48.4}
{"compound": "CC(C)(O)C1CCC(C)(C2C(O)CC3(C)C4CC(OC5OC(CO)C(O)C(O)C5O)C5C(C)(C)C(OC6OCC(O)C(O)C6O)CCC56CC46CCC23C)O1 (stereo unspecified) [Astragaloside A]", "quantityUnit": "%", "cell viability": 103}
{"compound": "C[C@H](Nc1ncnc2nc[nH]c12)c1cc2cccc(Cl)c2c(=O)n1-c1ccccc1", "quantityUnit": "%", "cell viability": 38}
{"compound": "CN1c2ccccc2C(=O)Nc2cnc(Nc3ccc(N4CCC(O)CC4)cc3)nc21", "quantityUnit": "%", "cell viability": 49.3}
{"compound": "O[C@H]1[C@H]2c3cc4c(cc3CN3CCC(=C[C@@H]1O)[C@H]23)OCO4 [Lycorine hydrochloride]", "quantityUnit": "%", "cell viability": 2.07}
{"compound": "CC(C)n1nc(-c2ccc3oc(N)nc3c2)c2c(N)ncnc21", "quantityUnit": "%", "cell viability": 12}
{"compound": "Nc1ccc(S(N)(=O)=O)cc1 [Sulfanilamide]", "quantityUnit": "%", "cell viability": 110}
{"compound": "N[C@@H](CSCCB(O)O)C(=O)O [BEC Hydrochloride]", "quantityUnit": "%", "cell viability": 111}
{"compound": "COc1cc2c(cc1OC)[C@@H](Cc1ccc(Oc3cc(C[C@@H]4c5cc(OC)c(OC)cc5CCN4C)ccc3O)cc1)N(C)CC2", "quantityUnit": "%", "cell viability": 4.94}
{"compound": "CN1[C@@H]2CC[C@H]1C[C@@H](OC(=O)c1c[nH]c3ccccc13)C2", "quantityUnit": "%", "cell viability": 98.3}
{"compound": "CCN(CC)CCCCNc1ncc2cc(-c3cc(OC)cc(OC)c3)c(NC(=O)NC(C)(C)C)nc2n1", "quantityUnit": "%", "cell viability": 40.1}
{"compound": "Cc1ccc(C(=O)N(CCCN)[C@@H](c2oc3cc(Cl)ccc3c(=O)c2Cc2ccccc2)C(C)C)cc1", "quantityUnit": "%", "cell viability": 0.4}
{"compound": "CN(Cc1ccc(C(C)(C)C)cc1)Cc1cccc2ccccc12 [Butenafine HCl]", "quantityUnit": "%", "cell viability": 101}
{"compound": "OC[C@@H](O)[C@@H](O)[C@@H](O)CO", "quantityUnit": "%", "cell viability": 97.9}
{"compound": "c1cncc(CN2CCC(n3ncc4c(N5CCOCC5)nc(-c5ccc6[nH]ccc6c5)nc43)CC2)c1", "quantityUnit": "%", "cell viability": 29.1}
{"compound": "CC(C)=CCC[C@](C)(O[C@@H]1O[C@H](CO[C@@H]2O[C@H](CO)[C@@H](O)[C@H](O)[C@H]2O)[C@@H](O)[C@H](O)[C@H]1O)[C@H]1CC[C@]2(C)[C@@H]1[C@H](O)C[C@@H]1[C@@]3(C)CC[C@H](O[C@@H]4O[C@H](CO)[C@@H](O)[C@H](O)[C@H]4O)C(C)(C)[C@@H]3CC[C@]12C [Gypenoside XVII]", "quantityUnit": "%", "cell viability": 106}
{"compound": "O=c1cc(-c2ccc(O)c(O)c2)oc2cc(O)cc(O)c12", "quantityUnit": "%", "cell viability": 58.9}
{"compound": "CCCCCCCCCC=O", "quantityUnit": "%", "cell viability": 111}
{"compound": "COc1ccccc1-c1cc(Nc2cccc(CS(N)(=O)=O)c2)ncn1", "quantityUnit": "%", "cell viability": 30}
{"compound": "CC[C@H]1OC(=O)[C@@](C)(F)C(=O)[C@H](C)[C@@H](O[C@@H]2O[C@H](C)C[C@H](N(C)C)[C@H]2O)[C@](C)(OC)C[C@@H](C)C(=O)[C@H](C)[C@H]2N(CCCCn3cc(-c4cccc(N)c4)nn3)C(=O)O[C@]12C", "quantityUnit": "%", "cell viability": 93.5}
{"compound": "CCNC(=O)[C@@H]1CCCN1C(=O)[C@H](CCCN=C(N)N)NC(=O)[C@H](CC(C)C)NC(=O)[C@@H](CC(C)C)NC(=O)[C@H](Cc1ccc(O)cc1)NC(=O)[C@H](CO)NC(=O)[C@H](Cc1c[nH]c2ccccc12)NC(=O)[C@H](Cc1cnc[nH]1)NC(=O)[C@@H]1CCC(=O)N1 [S3718 Leuprolide Acetate.cdx]", "quantityUnit": "%", "cell viability": 108}
{"compound": "COc1cc2c(cc1O)C[C@H]1c3cc(O)c(OC)cc3CC[N@@+]1(C)C2", "quantityUnit": "%", "cell viability": 96.4}
{"compound": "C=C(Cc1ccccc1Cl)C(=O)OCC", "quantityUnit": "%", "cell viability": 101}
{"compound": "CCCn1/c(=N/C(=O)c2cccc(C(N)=O)c2)[nH]c2ccccc21", "quantityUnit": "%", "cell viability": 84.3}
{"compound": "Cc1ccccc1C(=O)Nc1ccc(C(=O)N2CCCC(O)c3cc(Cl)ccc32)c(C)c1 (stereo unspecified)", "quantityUnit": "%", "cell viability": 83}
{"compound": "COCCOc1ccc2c(c1)ncn2-c1ccc2cccc(N3CCC(N)CC3)c2n1", "quantityUnit": "%", "cell viability": 3.99}
{"compound": "CNC[C@H](O)c1ccc(O)c(O)c1 [Epinephrine bitartrate (Adrenalinium)]", "quantityUnit": "%", "cell viability": 112}
{"compound": "CC1(C)S[C@@H]2[C@H](NC(=O)C(c3ccccc3)S(=O)(=O)O)C(=O)N2[C@H]1C(=O)O (stereo partly specified) [Sulbenicillin Sodium]", "quantityUnit": "%", "cell viability": 99.3}
{"compound": "N#Cc1c(N)nc(NC2CC2)nc1N", "quantityUnit": "%", "cell viability": 99.9}
{"compound": "Cn1cc(/C=C/C(=O)c2cccc(F)c2)cc1/C=C/C(=O)NO", "quantityUnit": "%", "cell viability": 65.3}

---

system: MOLM14; test: cell viability relative to vehicle control; higher = less cytotoxic; details: 10 µM; SRSF2 genotype: SRSF2 wt/wt
Structures can show the parent of a compound that is named as a salt.

{"molecule": "NC(=O)c1ccc(-c2nc(-c3ccc4c(c3)OCCO4)c(-c3ccccn3)[nH]2)cc1", "quantityUnit": "%", "cell viability": 97.6}
{"molecule": "CC(C)[N+]1(C)[C@@H]2CC[C@H]1C[C@@H](OC(=O)C(CO)c1ccccc1)C2 (some centres not stated) [Ipratropium bromide]", "quantityUnit": "%", "cell viability": 105}
{"molecule": "CCc1cc(/C(C)=N/OCc2ccc(C3CCCCC3)c(C(F)(F)F)c2)ccc1CN1CC(C(=O)O)C1 [BAF312 (Siponimod)]", "quantityUnit": "%", "cell viability": 66.3}
{"molecule": "C1N2CN3CN1CN(C2)C3", "quantityUnit": "%", "cell viability": 105}
{"molecule": "CC(NC(=O)c1ccccc1/N=C/c1c(O)ccc2ccccc12)c1ccccc1 (configuration not stated)", "quantityUnit": "%", "cell viability": 101}
{"molecule": "CNc1ccc([N+](=O)[O-])c(Nc2ccc3[nH]ncc3c2)n1", "quantityUnit": "%", "cell viability": 9.24}
{"molecule": "CC(C)(Sc1ccncc1-c1ccc(C#N)c2ccccc12)C(=O)O [Verinurad (RDEA3170)]", "quantityUnit": "%", "cell viability": 102}
{"molecule": "O=c1c2ccccc2nc(C=Cc2cccnc2)n1Cc1ccccc1", "quantityUnit": "%", "cell viability": 82.6}
{"molecule": "COCCCOc1ccnc(C[S+]([O-])c2nc3ccccc3[nH]2)c1C (configuration not stated) [Rebeprazole sodium]", "quantityUnit": "%", "cell viability": 102}
{"molecule": "COc1c/c(=C2\\C=c3ccccc3=N2)[nH]/c1=C\\c1[nH]c(C)cc1C [Obatoclax mesylate (GX15-070)]", "quantityUnit": "%", "cell viability": 7.58}
{"molecule": "CN(C)Cc1ccc(-c2nc3cccc4c3n2CCNC4=O)cc1", "quantityUnit": "%", "cell viability": 34.3}
{"molecule": "COc1cc2ncnc(Nc3ccc(O)c(Br)c3)c2cc1OC", "quantityUnit": "%", "cell viability": 24.3}
{"molecule": "COc1ccc(C(=O)CC2(O)C(=O)Nc3c(Cl)ccc(Cl)c32)cc1 (configuration not stated)", "quantityUnit": "%", "cell viability": 2.04}
{"molecule": "Cc1c(C)c(NCC(=O)N(C)C2CCN(Cc3ccc(C(N)=O)cc3)CC2)c(C)c(C)c1N", "quantityUnit": "%", "cell viability": 96.8}
{"molecule": "CN(CC(=O)N(Cc1ccc(C2CCCCC2)cc1)c1ccc(C(=O)NO)cc1)S(=O)(=O)c1c(F)c(F)c(F)c(F)c1F", "quantityUnit": "%", "cell viability": 0.33}
{"molecule": "C[C@@H]1CC[C@@]2(NC1)O[C@H]1C[C@H]3[C@@H]4CC=C5C[C@@H](O[C@@H]6O[C@H](CO)[C@@H](O[C@@H]7O[C@@H](C)[C@H](O)[C@@H](O)[C@H]7O)[C@H](O)[C@H]6O)CC[C@]5(C)[C@H]4CC[C@]3(C)[C@H]1[C@@H]2C", "quantityUnit": "%", "cell viability": 102}
{"molecule": "Cc1c(Cc2ccc3ccccc3n2)c2cc(F)ccc2n1CC(=O)O", "quantityUnit": "%", "cell viability": 103}
